# credit: the supplement of paper PMC10307832

- System: EMC-BAC-2
- TEST DETAILS: relative viability (nuclei count vs DMSO), 5 days (fraction); higher = more cells survive
- TEST CONTEXT: first compound 0.5 µM
PARAMETER: relative viability
Respond using a number only.

Entry COc1cc2nccc(Oc3ccc(NC(=O)Nc4cc(C)on4)c(Cl)c3)c2cc1OC [Tivozanib] + Cc1nc(Nc2ncc(C(=O)Nc3c(C)cccc3Cl)s2)cc(N2CCN(CCO)CC2)n1 [Dasatinib] (partner 0.075 µM) , relative viability reported as 0.237

* * *

- Test system: ChaGo-K-1
- TEST DETAILS: relative viability (nuclei count vs DMSO), 5 days (fraction); higher = more cells survive
- TEST CONTEXT: first compound 0.005 µM
PARAMETER: relative viability
Respond using a number only.

COc1cc2nccc(Oc3ccc(NC(=O)Nc4cc(C)on4)c(Cl)c3)c2cc1OC [Tivozanib] + COc1cccc2cc(-c3nc([C@H]4CC[C@H](C(=O)O)CC4)n4ncnc(N)c34)[nH]c12 [OSI-027] (partner 0.5 µM) = 0.601
Nc1ccn([C@@H]2O[C@H](CO)[C@@H](O)[C@@H]2O)c(=O)n1 [Cytarabine] + CCNC(=O)c1noc(-c2cc(C(C)C)c(O)cc2O)c1-c1ccc(CN2CCOCC2)cc1 [Luminespib] (partner 0.01 µM) = 0.649
Nc1ccn([C@@H]2O[C@H](CO)[C@@H](O)[C@@H]2O)c(=O)n1 [Cytarabine] + NC(=O)Nc1cc(-c2cccc(F)c2)sc1C(=O)N[C@H]1CCCNC1 [AZD7762] (partner 0.2 µM) = 0.877

Let us examine a further case.
Entry Nc1ccn([C@@H]2O[C@H](CO)[C@@H](O)[C@@H]2O)c(=O)n1 [Cytarabine] + Cc1nc(Nc2ncc(C(=O)Nc3c(C)cccc3Cl)s2)cc(N2CCN(CCO)CC2)n1 [Dasatinib] (partner 0.075 µM) , relative viability reported as 0.518

* * *

- System: NCI-H1355
- TEST DETAILS: relative viability (nuclei count vs DMSO), 5 days (fraction); higher = more cells survive
- TEST CONTEXT: first compound 0.5 µM
// boundary case: relative viability equal to 0.4 maps to Not satisfied; strictly smaller maps to Satisfied

Nc1ccn([C@@H]2O[C@H](CO)[C@@H](O)[C@@H]2O)c(=O)n1 [Cytarabine] + C[C@]1(O)C[C@@H](c2nc(-c3ccc4ccc(-c5ccccc5)nc4c3)c3c(N)nccn32)C1 [Linsitinib] (partner 1 µM) = Satisfied
COc1cc2nccc(Oc3ccc(NC(=O)Nc4cc(C)on4)c(Cl)c3)c2cc1OC [Tivozanib] + Nc1ncn([C@H]2C[C@H](O)[C@@H](CO)O2)c(=O)n1 [Decitabine] (partner 2 µM) = Satisfied
Nc1ccn([C@@H]2O[C@H](CO)[C@@H](O)[C@@H]2O)c(=O)n1 [Cytarabine] + O=C(c1cc(Cc2n[nH]c(=O)c3ccccc23)ccc1F)N1CCN(C(=O)C2CC2)CC1 [Olaparib] (partner 8 µM) = Satisfied

As a next step, examine the compound that follows.
Exercise: Identify whether the compound COc1cc2nccc(Oc3ccc(NC(=O)Nc4cc(C)on4)c(Cl)c3)c2cc1OC [Tivozanib] + CC1(C)CCC(c2ccc(Cl)cc2)=C(CN2CCN(c3ccc(C(=O)NS(=O)(=O)c4ccc(N[C@H](CCN5CCOCC5)CSc5ccccc5)c(S(=O)(=O)C(F)(F)F)c4)cc3)CC2)C1 [Navitoclax] (partner 0.5 µM) records relative viability below 0.4.
Key: Not satisfied

* * *

List of relative viability values.
- Tested on: BEN
- TEST DETAILS: relative viability (nuclei count vs DMSO), 5 days (fraction); higher = more cells survive
- TEST CONTEXT: first compound 0.005 µM

// below: answered compounds
Nc1ccn([C@@H]2O[C@H](CO)[C@@H](O)[C@@H]2O)c(=O)n1 [Cytarabine] + Nc1nc2[nH]cc(CCc3ccc(C(=O)N[C@@H](CCC(=O)O)C(=O)O)cc3)c2c(=O)[nH]1 [Pemetrexed] (partner 0.2 µM) = 0.632
COc1cc2nccc(Oc3ccc(NC(=O)Nc4cc(C)on4)c(Cl)c3)c2cc1OC [Tivozanib] + COc1cccc2cc(-c3nc([C@H]4CC[C@H](C(=O)O)CC4)n4ncnc(N)c34)[nH]c12 [OSI-027] (partner 0.5 µM) = 0.281
Nc1ccn([C@@H]2O[C@H](CO)[C@@H](O)[C@@H]2O)c(=O)n1 [Cytarabine] + N=C(N)NC(=N)NCCc1ccccc1 [Phenformin] (partner 250 µM) = 0.193

Entry Nc1ccn([C@@H]2O[C@H](CO)[C@@H](O)[C@@H]2O)c(=O)n1 [Cytarabine] + C[C@@H](Oc1cc(-c2cnn(C3CCNCC3)c2)cnc1N)c1c(Cl)ccc(F)c1Cl [Crizotinib] (partner 1 µM) , relative viability reported as 0.605

Entry Nc1ccn([C@@H]2O[C@H](CO)[C@@H](O)[C@@H]2O)c(=O)n1 [Cytarabine] + C[C@]1(O)C[C@@H](c2nc(-c3ccc4ccc(-c5ccccc5)nc4c3)c3c(N)nccn32)C1 [Linsitinib] (partner 1 µM) , relative viability reported as 0.616

* * *

- Test system: NCI-H2009
- TEST DETAILS: relative viability (nuclei count vs DMSO), 5 days (fraction); higher = more cells survive
- TEST CONTEXT: first compound 0.005 µM
PARAMETER: relative viability
Respond using a number only.

// below: answered compounds
Nc1ccn([C@@H]2O[C@H](CO)[C@@H](O)[C@@H]2O)c(=O)n1 [Cytarabine] + Cc1cc(Nc2cc(N3CCN(C)CC3)nc(Sc3ccc(NC(=O)C4CC4)cc3)n2)n[nH]1 [Tozasertib] (partner 0.1 µM) = 0.685
COc1cc2nccc(Oc3ccc(NC(=O)Nc4cc(C)on4)c(Cl)c3)c2cc1OC [Tivozanib] + CC(C)C[C@H](NC(=O)[C@H](Cc1ccccc1)NC(=O)c1cnccn1)B(O)O [Bortezomib] (partner 0.002 µM) = 0.945

The observed relative viability for COc1cc2nccc(Oc3ccc(NC(=O)Nc4cc(C)on4)c(Cl)c3)c2cc1OC [Tivozanib] + CC(=O)c1c(C)c2cnc(Nc3ccc(N4CCNCC4)cn3)nc2n(C2CCCC2)c1=O [Palbociclib] (partner 0.5 µM) when tested with NCI-H2009 stands at 0.212

The observed relative viability for COc1cc2nccc(Oc3ccc(NC(=O)Nc4cc(C)on4)c(Cl)c3)c2cc1OC [Tivozanib] + CS(=O)(=O)CCNCc1ccc(-c2ccc3ncnc(Nc4ccc(OCc5cccc(F)c5)c(Cl)c4)c3c2)o1 [Lapatinib] (partner 2 µM) when tested with NCI-H2009 stands at 0.88

* * *

- Tested on: NCI-H2126
- TEST DETAILS: relative viability (nuclei count vs DMSO), 5 days (fraction); higher = more cells survive
- TEST CONTEXT: first compound 0.1265 µM
PARAMETER: relative viability
Respond using a number only.

Cc1sc2c(c1C)C(c1ccc(Cl)cc1)=N[C@@H](CC(=O)OC(C)(C)C)c1nnc(C)n1-2 [JQ1] + CCNC(=O)c1noc(-c2cc(C(C)C)c(O)cc2O)c1-c1ccc(CN2CCOCC2)cc1 [Luminespib] (partner 0.01 µM) = 0.767

Entry Cc1sc2c(c1C)C(c1ccc(Cl)cc1)=N[C@@H](CC(=O)OC(C)(C)C)c1nnc(C)n1-2 [JQ1] + Cc1nc(Nc2ncc(C(=O)Nc3c(C)cccc3Cl)s2)cc(N2CCN(CCO)CC2)n1 [Dasatinib] (partner 0.075 µM) , relative viability reported as 0.575

Entry Cc1sc2c(c1C)C(c1ccc(Cl)cc1)=N[C@@H](CC(=O)OC(C)(C)C)c1nnc(C)n1-2 [JQ1] + CC(C)C[C@H](NC(=O)[C@H](Cc1ccccc1)NC(=O)c1cnccn1)B(O)O [Bortezomib] (partner 0.002 µM) , relative viability reported as 1.01

Entry Cc1sc2c(c1C)C(c1ccc(Cl)cc1)=N[C@@H](CC(=O)OC(C)(C)C)c1nnc(C)n1-2 [JQ1] + CC(=O)Nc1cccc(-n2c(=O)n(C3CC3)c(=O)c3c(Nc4ccc(I)cc4F)n(C)c(=O)c(C)c32)c1 [Trametinib] (partner 0.02 µM) , relative viability reported as 0.549

Entry Cc1sc2c(c1C)C(c1ccc(Cl)cc1)=N[C@@H](CC(=O)OC(C)(C)C)c1nnc(C)n1-2 [JQ1] + C[C@@H](Oc1cc(-c2cnn(C3CCNCC3)c2)cnc1N)c1c(Cl)ccc(F)c1Cl [Crizotinib] (partner 1 µM) , relative viability reported as 0.987

Entry Cc1sc2c(c1C)C(c1ccc(Cl)cc1)=N[C@@H](CC(=O)OC(C)(C)C)c1nnc(C)n1-2 [JQ1] + CC1(C)CCC(c2ccc(Cl)cc2)=C(CN2CCN(c3ccc(C(=O)NS(=O)(=O)c4ccc(N[C@H](CCN5CCOCC5)CSc5ccccc5)c(S(=O)(=O)C(F)(F)F)c4)cc3)CC2)C1 [Navitoclax] (partner 0.5 µM) , relative viability reported as 0.733

Entry Cc1sc2c(c1C)C(c1ccc(Cl)cc1)=N[C@@H](CC(=O)OC(C)(C)C)c1nnc(C)n1-2 [JQ1] + C[C@]1(O)C[C@@H](c2nc(-c3ccc4ccc(-c5ccccc5)nc4c3)c3c(N)nccn32)C1 [Linsitinib] (partner 1 µM) , relative viability reported as 1.52
